Here, each record is paired with measured binary diffusion coefficient data.
Experiment: xn = mol fraction of the nth substance listed
Conditions: 303.2 K; 101 kPa; Liquid; Taylor dispersion method; x1 = 0
Give the number; m2/s is assumed, so skip it.

The examples below pair each entry with its known result.
Asked: Need binary diffusion coefficient, item CCn1cc[n+](C)c1.F[B-](F)(F)F [1-ethyl-3-methylimidazolium tetrafluoroborate] + O
Given back: 1.52e-09

Asked: Here is the next compound: CCCCCCCC[n+]1ccn(C)c1.F[P-](F)(F)(F)(F)F [1-octyl-3-methylimidazolium hexafluorophosphate] + O
Given back: 1.06e-09

Asked: Likewise for CCCCn1cc[n+](C)c1.F[P-](F)(F)(F)(F)F [1-butyl-3-methylimidazolium hexafluorophosphate] + O ?
Given back: 1.25e-09

Asked: Input CCn1cc[n+](C)c1.F[P-](F)(F)(F)(F)F [1-ethyl-3-methylimidazolium hexafluorophosphate] + O
Given back: 1.41e-09

Asked: Try CCCCCCn1cc[n+](C)c1.F[B-](F)(F)F [1-hexyl-3-methylimidazolium tetrafluoroborate] + O next.
Given back: 1.24e-09

Others:
Asked: Given the entry CCCCCCCC[n+]1ccn(C)c1.F[B-](F)(F)F [1-methyl-3-octylimidazolium tetrafluoroborate] + O , report its measured binary diffusion coefficient.
Given back: 1.14e-09

Asked: Can you check CCCCCCn1cc[n+](C)c1.F[P-](F)(F)(F)(F)F [1-hexyl-3-methylimidazolium hexafluorophosphate] + O next?
Given back: 1.11e-09

Asked: Then what about the compound CCCCn1cc[n+](C)c1.F[B-](F)(F)F [1-butyl-3-methylimidazolium tetrafluoroborate] + O ?
Given back: 1.3e-09
